# Tested on: Streptococcus pneumoniae
# procedure-text: MIC test (titration method, EUCAST)
# Format: cell-based
# test-parameters: multi-resistant Streptococcus pneumoniae; averages of multiple test runs; read-out: MHK (MIC) STR
# Protocol: The activities of the novel compounds were tested in two different screening systems. The antibacterial and antifungal activities were examined by means of an MIC test, MIC standing for “minimal inhibitory concentration” and referring to the lowest concentration of a substance at which no proliferation of microorganisms can be observed with the naked eye. The MIC is determined by means of a so called titration method in which the substance is diluted and, subsequently, the pathogen is added to it. […]
endpoint-name: MIC

Past entries and their recorded results:
| compound | endpoint-name | result |
| --- | --- | --- |
| COc1cc(O)c2c(c1-c1c(OC)cc(O)c3c1C(=O)c1cc(C)c(O)c(O)c1C3=O)C(=O)C1=C(C2=O)[C@H](O)[C@@H](O)[C@@](C)(O)[C@H]1O [Example 2] | MIC | 7.8 µg/mL |
| COc1cc(O)c2c(c1)C(=O)C1=C(C2=O)[C@@H](O)[C@H](OC(C)=O)[C@@](C)(O)[C@@H]1O [Example 1] | MIC | 7.8 µg/mL |
| COc1cc(O)c2c(c1)C(=O)C1=C(C2=O)[C@H](O)[C@@H](O)[C@@](C)(O)[C@@H]1O [Altersolanol A] | MIC | 7.8 µg/mL |

MIC lookup needed for COC1=CC(=O)c2c(O)c3c(c(O)c2C1=O)C[C@](C)(O)[C@H](O)[C@H]3O [Bostrycin] , thanks.
62.5 µg/mL
